The origin of these recorded values is the supplement of paper PMC7877785.

experiment: self-splicing fitness, log relative to wild type (ln ratio); higher = more splicing; Tetrahymena group I intron in knt gene, E. coli kanamycin selection, DiMSum; sequences stand for … in CUCUCU…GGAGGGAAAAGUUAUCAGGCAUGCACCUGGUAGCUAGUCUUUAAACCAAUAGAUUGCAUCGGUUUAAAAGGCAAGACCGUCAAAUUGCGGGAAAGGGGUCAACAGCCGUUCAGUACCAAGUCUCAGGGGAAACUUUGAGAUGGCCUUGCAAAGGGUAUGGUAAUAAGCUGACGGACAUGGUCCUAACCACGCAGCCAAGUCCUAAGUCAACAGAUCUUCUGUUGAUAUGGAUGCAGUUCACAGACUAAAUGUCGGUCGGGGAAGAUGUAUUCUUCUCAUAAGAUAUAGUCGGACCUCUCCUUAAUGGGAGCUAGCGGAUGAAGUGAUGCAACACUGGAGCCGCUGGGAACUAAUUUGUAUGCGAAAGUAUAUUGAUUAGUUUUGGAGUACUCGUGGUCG; settings: 30 °C;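 also: selection with 25 µg/mL kanamycin versus none on LB agar overnight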
assayReadout: self-splicing fitness (ln)
The response must contain the number and no unit.

Query: Give the measured self-splicing fitness (ln) of GCCUAGCAAUAUUACGUAGA .
Reply: -1.73

Query: Give the measured self-splicing fitness (ln) of CUAAAGCAAUAUUACGCCUC .
Reply: -3.62
